Molecular target: T1, mouse PRLR construct with an HA tag on HEK293/mPRLR cells (mouse, UniProt Q08501 20-608)
T1 construct: whole, on cells; stably transfected into HEK293
T1 sequence (looked up): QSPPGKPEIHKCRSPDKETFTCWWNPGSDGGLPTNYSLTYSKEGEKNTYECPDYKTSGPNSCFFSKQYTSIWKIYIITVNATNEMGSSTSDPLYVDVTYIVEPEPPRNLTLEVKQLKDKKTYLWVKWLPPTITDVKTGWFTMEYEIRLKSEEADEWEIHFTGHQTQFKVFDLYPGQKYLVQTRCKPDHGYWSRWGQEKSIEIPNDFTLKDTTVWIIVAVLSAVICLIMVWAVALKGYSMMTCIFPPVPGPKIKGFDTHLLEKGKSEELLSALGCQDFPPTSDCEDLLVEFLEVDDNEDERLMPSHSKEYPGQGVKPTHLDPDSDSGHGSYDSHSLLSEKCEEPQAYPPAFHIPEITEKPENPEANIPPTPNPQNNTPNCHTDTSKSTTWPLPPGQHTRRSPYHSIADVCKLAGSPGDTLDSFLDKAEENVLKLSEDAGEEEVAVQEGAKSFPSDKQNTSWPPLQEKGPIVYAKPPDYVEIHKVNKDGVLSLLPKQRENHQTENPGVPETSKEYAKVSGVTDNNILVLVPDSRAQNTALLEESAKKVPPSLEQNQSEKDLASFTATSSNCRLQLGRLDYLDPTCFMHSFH
Experiment: FACS on HEK293/mPRLR cells
# Lookup of reported FACS Cell Binding (Fold Above Background) keyed by entry
Endpoint: FACS Cell Binding (Fold Above Background) (fold)

[[record]]
binder = "H1H6762P (antibody, human IgG1, V domains shown, human IgG1 Fc (H1H)) VH: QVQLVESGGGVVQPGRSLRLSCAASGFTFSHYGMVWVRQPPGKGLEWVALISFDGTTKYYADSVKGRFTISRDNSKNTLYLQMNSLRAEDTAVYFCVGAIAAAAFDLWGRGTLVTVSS VL: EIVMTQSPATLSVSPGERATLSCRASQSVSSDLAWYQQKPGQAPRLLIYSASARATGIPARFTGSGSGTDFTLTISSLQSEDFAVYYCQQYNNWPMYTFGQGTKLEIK"
numeric_value = 2

[[record]]
binder = "H1H6976N (antibody, human IgG1, V domains shown, also called H2M6976N) VH: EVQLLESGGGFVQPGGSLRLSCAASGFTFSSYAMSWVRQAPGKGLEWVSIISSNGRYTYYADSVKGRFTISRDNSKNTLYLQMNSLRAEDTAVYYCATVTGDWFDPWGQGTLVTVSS VL: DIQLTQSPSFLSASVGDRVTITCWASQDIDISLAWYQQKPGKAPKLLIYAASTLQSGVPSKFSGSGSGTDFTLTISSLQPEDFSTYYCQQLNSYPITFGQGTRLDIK"
numeric_value = 1

[[record]]
binder = "H1H6975N (antibody, human IgG1, V domains shown, also called H2M6975N) VH: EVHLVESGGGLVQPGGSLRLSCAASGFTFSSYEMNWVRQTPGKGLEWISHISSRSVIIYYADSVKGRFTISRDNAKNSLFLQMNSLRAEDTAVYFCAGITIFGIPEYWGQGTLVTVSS VL: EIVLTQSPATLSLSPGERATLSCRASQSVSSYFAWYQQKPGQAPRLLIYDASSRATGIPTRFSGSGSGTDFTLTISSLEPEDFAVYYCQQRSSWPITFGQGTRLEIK"
numeric_value = 1

